assay: qHTS for Inhibitors of the Aldehyde Dehydrogenase Family (ALDH1A2, ALDH1A3, ALDH2, ALDH3A1) (AID 2061307); conditions: ALDH inhibition qHTS; series mostly up to 50.3 µM; also: nearly all actives have a fitted effect of over 50% in size
Results filed as inconclusive are left out. Active and inactive are the calls of the source. Calls follow the shape of the dose curve; as a rule, active = well fitted inhibition curve with a large enough effect; inconclusive = small, poorly fitted or top-dose-only effect; inactive = no such curve, though single readings can be large or run the other way.
Please state which outcome applies, choosing from active, inactive

Worked examples, 3 compounds total:
- Molecule: "NC(=Nc1ccc(CCNCc2cccc(Cl)c2)cc1)c1cccs1"
  Class assignment: "inactive"
- Molecule: "Cc1noc(C)c1-c1csc(N2CCC(C(N)=O)CC2)n1"
  Class assignment: "inactive"
- Molecule: "C/C(=N\\N=C(N)N)c1cc(NC(=O)CCCCCCCCC(=O)Nc2cc(/C(C)=N/N=C(N)N)cc(/C(C)=N/N=C(N)N)c2)cc(/C(C)=N/N=C(N)N)c1"
  Class assignment: "inactive"

Exercise: Fill in: this test's call for "CC(C)c1ccccc1-c1nc2c(c(NCc3ccc(-c4cccnc4)cc3)n1)CCNC2" is ___
Key: inactive

Exercise: Also "Cc1nnc(-c2cnn(C)c2N)n1CCc1ccccc1" , if possible.
Key: inactive

Exercise: Also "Cc1ccc(C(=O)NC2CCN(Cc3cccc(-c4cccc(C)c4)c3)CC2)cc1" , if possible.
Key: inactive

Exercise: Also "CC(C)(C)OC(=O)N1CCN(c2ccc(NCc3ccnc(-c4ccc(C#N)cc4)n3)cc2)CC1" , if possible.
Key: active

Exercise: Also "O=C(O)Cc1ccc(O)c(O)c1" , if possible.
Key: inactive

Exercise: Also "COc1ccc(C2=Nn3c(nnc3-c3ccc(OC)c(OC)c3)SC2)c(OC)c1" , if possible.
Key: inactive

Exercise: Also "S=C(NCCCc1cnc[nH]1)NCCCN(Cc1ccc(Cl)c(Cl)c1)c1ccccn1" , if possible.
Key: inactive

* * *

biological target: Cellular tumor antigen p53 (Homo sapiens); experiment: Primary qHTS for small molecule compounds that upregulate eGFP-tagged delta133p53alpha (in N-terminal) cells. (AID 2060322); details: NCI-H358 eGFP-delta133p53alpha fluorescence, 24 h; stronger effect = higher value; also: nearly all actives have a fitted effect of over 75% in size;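 as to activation: cells pre-induced with doxycycline then dosed without doxycycline; 0% = DMSO vehicle and 100% = reference activator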
Inconclusive results are not listed.
Measure: activation (%)
Answers are plain numbers, in %.

Field: activation. Fill in for each record below.
1. COc1ccc(Cc2ccc(NC(N)=O)cc2)cc1-c1cccc(Cl)c1
2. C=C1CC[C@H]2[C@@](C)(CCC(O)[C@@]2(C)CO)[C@@H]1CCC1=CCOC1=O (stereo not given in full)
3. Cc1ccc2c(c1)c1c3n2CCNC3CCC1 (stereo not given)
4. CN(C)C(=O)CNC(=O)Cc1ccccc1
5. COc1ccc(C=CC(=O)Nc2ccccc2C(=O)O)cc1OC
6. Clc1ccc2ncc(-c3cccc(NC4CNC4)n3)n2c1

Key:
1: 2.49; 2: -11.5; 3: -0.837; 4: 5.02; 5: 5.12; 6: 11

* * *

Give Potency for every item shown.
molecular target: Cellular tumor antigen p53 (Homo sapiens) (UniProt P04637); assay: Primary qHTS for small molecule compounds that upregulate eGFP-tagged delta133p53alpha (in N-terminal) cells. (AID 2060322); conditions: NCI-H358 eGFP-delta133p53alpha fluorescence, 24 h; also: nearly all actives have a fitted effect of over 75% in size; also: potency is read from the fitted curve at half-maximal effect;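 as to activation: cells pre-induced with doxycycline then dosed without doxycycline; 0% = DMSO vehicle and 100% = reference activator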
Sequence (P04637 whole entry, looked up): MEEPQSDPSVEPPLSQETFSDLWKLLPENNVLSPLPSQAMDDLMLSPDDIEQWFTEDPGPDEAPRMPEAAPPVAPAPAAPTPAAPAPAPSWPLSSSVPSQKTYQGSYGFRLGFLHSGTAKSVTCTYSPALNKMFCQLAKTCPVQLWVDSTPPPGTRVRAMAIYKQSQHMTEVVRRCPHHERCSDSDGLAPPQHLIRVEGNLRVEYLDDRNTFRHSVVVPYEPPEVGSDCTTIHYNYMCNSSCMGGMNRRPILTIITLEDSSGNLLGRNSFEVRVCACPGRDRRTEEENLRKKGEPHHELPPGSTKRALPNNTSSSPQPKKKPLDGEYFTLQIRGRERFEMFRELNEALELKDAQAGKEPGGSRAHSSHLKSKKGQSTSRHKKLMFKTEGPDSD
Records with an inconclusive call do not appear. Activity calls are given as the source filed them. Calls come from the whole dose curve; as a rule, active = well fitted activation curve with a large enough effect; inconclusive = small, poorly fitted or top-dose-only effect; inactive = no such curve, though single readings can be large or run the other way.

- Molecule: "COc1cc2ncnc(Oc3cccc(NC(=O)Nc4cc(C(C)(C)C(F)(F)F)on4)c3)c2cc1OC"
  Target under test: "Cellular tumor antigen p53 (Homo sapiens) (UniProt P04637)"
  Measure: "Potency"
  Result: "23.9 µM (active)"

Field: Potency. Fill in for each record below.
1. CC(C)C[C@H](NC(=O)CNC(=O)c1cc(Cl)ccc1Cl)B(O)O
2. CCOC(=O)C1=C(N)Oc2ccc(Cl)cc2C1C(C#N)C(=O)OCC (configuration not stated)
3. CCN1CCN(Cc2ccc(NC(=O)c3ccc(C)c(Oc4ncnc5[nH]c(C)cc45)c3)cc2C(F)(F)F)CC1
4. C=CC(=O)Nc1cc(Nc2nccc(-c3c[nH]c4ccccc34)n2)c(OC)cc1N(C)CCN(C)C

Key:
["17.2 µM (active)", "23.9 µM (active)", "23.9 µM (active)", "10.7 µM (active)"]

* * *

target: Retinal dehydrogenase 2 (Homo sapiens) (UniProt O94788); assay: qHTS for Inhibitors of the Aldehyde Dehydrogenase Family (ALDH1A2) Confirmation screens (AID 2061314); conditions: ALDH1A2 enzyme inhibition qHTS confirmation; series mostly up to 45.9 µM; also: nearly all actives have a fitted effect of over 65% in size
Results filed as inconclusive are left out. Activity calls are given as the source filed them. Calls follow the shape of the dose curve; as a rule, active = well fitted inhibition curve with a large enough effect; inconclusive = small, poorly fitted or top-dose-only effect; inactive = no such curve, though single readings can be large or run the other way.
Please state which outcome applies, choosing from active, inactive

Worked examples, 4 compounds total:
- Compound: "CC(=O)NC(c1ccco1)c1cc(Cl)c2ccc(N3CCCCC3)nc2c1O (stereo not given)"
  Class assignment: "active"
- Compound: "CCn1cc2nc(SCc3cccc(C)c3)n(CCc3ccccc3)c(=O)c2n1"
  Class assignment: "active"
- Compound: "Cc1cc(Cl)ccc1COc1ccnn1-c1cc(C(=O)O)ccn1"
  Class assignment: "inactive"
- Compound: "Cc1cnc(-c2ccccc2C(C)C)nc1NCC1CN(c2cccnc2)C1"
  Class assignment: "active"

Exercise: Fill in: this test's call for "CCCc1nnc(-c2cnn(C)c2N)n1CCCn1ccnc1" is ___
Key: inactive

Exercise: Also COc1cc(/C=C/C(=O)OC[C@H]2O[C@@H](OC3OC=C(C(=O)O)C4C(O)CC(C)(O)C34)[C@H](O)[C@@H](O)[C@@H]2O)cc(OC)c1O (stereo not given in full) , if possible.
Key: inactive

* * *

experiment: BET inhibitor-based combinations targeting novel dependencies in MECOM-rearranged (r) AML: HNT-34 cell line (AID 2202234); settings: HNT-34 AML viability, CellTiter-Glo luminescence, 48 h; series mostly up to 46 µM; also: nearly all actives have a fitted effect of over 35% in size
Inconclusive results are not listed. Active and inactive are the calls of the source. Calls follow the shape of the dose curve; as a rule, active = well fitted inhibition curve with a large enough effect; inconclusive = small, poorly fitted or top-dose-only effect; inactive = no such curve, though single readings can be large or run the other way. Non-standard residues stand in square brackets, D forms with d. Residues, ends and D or L forms follow the SMILES beside them. *: point of attachment. Sta = CC(C)C[C@H](N)[C@@H](O)CC(=O)O; Isovaleryl = CC(C)CC(=O)*
Please state which outcome applies, choosing from 1 (active), 0 (inactive)

Worked examples, 3 compounds total:
- Compound: "Cc1cccc(CC(=O)N2CCc3c2ccc(-c2cn(C)c4ncnc(N)c24)c3F)n1"
  Class assignment: 1
- Compound: "CC(C)CC(=O)N[C@H](C(=O)N[C@H](C(=O)N[C@@H](CC(C)C)[C@@H](O)CC(=O)N[C@@H](C)C(=O)N[C@@H](CC(C)C)[C@@H](O)CC(=O)O)C(C)C)C(C)C (Isovaleryl-VV[Sta]A[Sta]-OH)"
  Class assignment: 0
- Compound: "C[C@@H](NCCCc1cccc(C(F)(F)F)c1)c1cccc2ccccc12"
  Class assignment: 1

Exercise: Fill in: this test's call for "CC(C)C[C@@H](N)[C@H](O)C(=O)N[C@H](C(=O)N[C@H](C(=O)N[C@@H](CC(=O)O)C(=O)O)C(C)C)C(C)C" is ___
Key: 0

Exercise: Also "NC(=O)c1ccc2[nH]ccc2c1" , if possible.
Key: 0

Exercise: Also "O=C(CCCCCCC(=O)Nc1ccc([C@H]2O[C@@H](CSc3nc(-c4ccccc4)c(-c4ccccc4)o3)C[C@@H](c3ccc(CO)cc3)O2)cc1)NO" , if possible.
Key: 1

Exercise: Also "COc1ccc2c(Oc3ccc(NC(=O)c4c(C)n(CC(C)(C)O)n(-c5ccccc5)c4=O)nc3)ccnc2c1" , if possible.
Key: 1

* * *

test: BET inhibitor-based combinations targeting novel dependencies in MECOM-rearranged (r) AML: OCI-AML3 cell line (AID 2202232); conditions: CellTiter-Glo luminescence, 48 h; OCI-AML3 viability; series mostly up to 46 µM; also: nearly all actives have a fitted effect of over 35% in size; also: potency is read from the fitted curve at half-maximal effect
Inconclusive results are not listed. Calls of active or inactive are those of the source. Calls come from the whole dose curve; as a rule, active = well fitted inhibition curve with a large enough effect; inconclusive = small, poorly fitted or top-dose-only effect; inactive = no such curve, though single readings can be large or run the other way.
Measure: Potency

Example cases with answers are listed next.
- Molecule: "COc1ccc2nc3n[nH]c(C)c3c(NCCOCCO)c2c1"
  Potency: "inactive"
- Molecule: "O=C1CCC(N2C(=O)c3ccccc3C2=O)C(=O)N1 (stereo not given)"
  Potency: "inactive"
- Molecule: "COc1cc(-c2nn(C3CCC(N4CCN(C(C)=O)CC4)CC3)c3ncnc(N)c23)ccc1NC(=O)c1cc2ccccc2n1C (stereo not given)"
  Potency: "7.42 µM (active)"
- Molecule: "C=CC(=O)Nc1cccc(Nc2nc(Nc3ccc(Oc4ccnc(C(=O)NC)c4)cc3)ncc2F)c1"
  Potency: "18.6 µM (active)"
- Molecule: "CC1(C)CCC(C)(C)c2cc(NC(=O)c3ccc(C(=O)O)cc3)ccc21"
  Potency: "inactive"

Field: Potency. Fill in for each record below.
1. NS(=O)(=O)c1ccc(NC2=CC(=O)c3ccccc3C2=O)cc1
2. CC[C@H](NC(=O)[C@H](CS(=O)(=O)CC1CC1)N[C@@H](c1ccc(F)cc1)C(F)(F)F)C(=O)C(=O)NC1CC1
3. Cc1cc(O)c2c(c1)C(=O)c1cc(O)cc(O)c1C2=O
4. Cn1cc(-c2ccc(S(=O)(=O)n3ccc(/C=C/C(=O)Nc4ccccc4N)c3)cc2)cn1

Key:
5.25 µM (active)
inactive
9.34 µM (active)
1.18 µM (active)

Exercise: Look up Potency for this molecule: "NNCCc1ccccc1"
Key: 7.42 µM (active)
